Reference source: patent US20180030151A1

FXa assay % of FXa alone, 2.5 nM Ab, 10 nM TFPI overview
molecular target: recombinant human TFPI (tissue factor pathway inhibitor) (human, UniProt P10646 29-304); assay: cell-based or functional assay
Assay readout: FXa assay % of FXa alone, 2.5 nM Ab, 10 nM TFPI (%)

- Binder: "clone 21 (antibody, V domains shown) VH: EVQLVESGGGLVKPGGSLRLSCAASGFTFSSYAMNWVRQAPGKGLEWVSTITKGGSYTYYADSVDGRFTISRDNAKNSLYLQMNSLRAEDTAVYYCARQDGNFLMDYWGQGTLVTVSS VL: DVVMTQTPLSLPVTLGQPASISCKSSPSLLDSDGKTYLNWLQQRPGQSPKRLIYLVSKLDSGVPDRFTGSGSGTDFTLKISRVEAEDVGVYYCWQGTHFPFTFGQGTKVEIKR"
  Endpoint value: 5.9
- Binder: "clone 23 (antibody, V domains shown) VH: EVQLVESGGGLVKPGGSLRLSCAASGFTFSHYAMNWVRQAPGKGLEWVSTITTGGSYTYYADSVEGRFTISRDNAKNSLYLQMNSLRAEDTAVYYCARQDGHFLMDYWGQGTLVTVSS VL: DVVMTQTPLSLPVTLGQPASISCKSSPSLLDIDGKTYLNWLQQRPGQSPKRLIYLVSKLDSGVPDRFTGSGSGTDFTLKISRVEAEDVGVYYCWQGTHLPFTFGQGTKVEIKR"
  Endpoint value: 6.9
- Binder: "clone 1023 (antibody, V domains shown, scFv on yeast at selection; human IgG4/kappa IgG as purified) VH: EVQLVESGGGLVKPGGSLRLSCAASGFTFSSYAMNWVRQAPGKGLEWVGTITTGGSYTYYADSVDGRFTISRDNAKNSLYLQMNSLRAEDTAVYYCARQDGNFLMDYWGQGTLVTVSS VL: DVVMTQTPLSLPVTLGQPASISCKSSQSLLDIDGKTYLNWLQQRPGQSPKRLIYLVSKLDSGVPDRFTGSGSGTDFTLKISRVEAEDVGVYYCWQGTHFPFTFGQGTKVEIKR"
  Endpoint value: 8.1
- Binder: "clone 16 (antibody, V domains shown) VH: EVQLVESGGGLVKPGGSLRLSCAASGFTFSHYAMTWVRQAPGKGLEWVSTITTGGSHTYYADSVEGRFTISRDNAKNSLYLQMNSLRAEDTAVYYCARQDGNFLMDYWGQGTLVTVSS VL: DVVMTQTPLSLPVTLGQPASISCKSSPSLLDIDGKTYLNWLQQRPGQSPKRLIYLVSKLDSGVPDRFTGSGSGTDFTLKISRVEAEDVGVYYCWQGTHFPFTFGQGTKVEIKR"
  Endpoint value: 7.3
